Test system: CCRIS mutagenicity, Ames/micronucleus/aberration tests
Experiment: CCRIS mutagenicity studies
Settings: Test System: E. COLI; Strain/Indicator: WP2 UVRA; Metabolic Activation: NONE; Method: STANDARD PLATE
Active and inactive are the calls of the source. No rule for the calls is given here.
Outcomes: TRUE (active), FALSE (inactive)

{"compound": "CCOC(=O)[C@H]1O[C@@H]1C(=O)N[C@@H](CC(C)C)C(=O)NCCC(C)C", "categoryLabel": "FALSE"}
{"compound": "CN1C(=O)CC(=O)N(c2ccccc2)c2cc(Cl)ccc21", "categoryLabel": "FALSE"}
{"compound": "CC1=NN(c2ccccc2)C(=O)C1", "categoryLabel": "FALSE"}
{"compound": "Cc1c2ccccc2c(C)c2c1ccc1ccccc12", "categoryLabel": "FALSE"}
{"compound": "CC(=O)c1ccc(S(=O)(=O)NC(=O)NC2CCCCC2)cc1", "categoryLabel": "FALSE"}
{"compound": "O=C1OC(CN2CCOCC2)CN1/N=C/c1ccc([N+](=O)[O-])o1 (configuration not stated)", "categoryLabel": "TRUE"}
{"compound": "CC(=O)c1ccc(NO)cc1", "categoryLabel": "TRUE"}

---

Test system: CCRIS mutagenicity, Ames/micronucleus/aberration tests
Test: CCRIS mutagenicity studies
Conditions: Test System: AMES SALMONELLA TYPHIMURIUM; Strain/Indicator: TA104; Metabolic Activation: NONE; Method: STANDARD PLATE
The source made the active and inactive calls. The rule behind the calls is not given here.
Possible outcomes: 1 (active), 0 (inactive)

{"compound": "CCN(CCCl)c1ccc(OCCCCCNc2c3ccccc3nc3ccccc23)cc1", "system": "CCRIS mutagenicity, Ames/micronucleus/aberration tests", "categoryLabel": 0}
{"compound": "c1ccc2c(OCC3CO3)cccc2c1 (centres undefined)", "system": "CCRIS mutagenicity, Ames/micronucleus/aberration tests", "categoryLabel": 1}
{"compound": "c1ccc2c(CC3CO3)cccc2c1 (centres undefined)", "system": "CCRIS mutagenicity, Ames/micronucleus/aberration tests", "categoryLabel": 1}
{"compound": "BrC(Br)C(Br)Br", "system": "CCRIS mutagenicity, Ames/micronucleus/aberration tests", "categoryLabel": 0}

---

Test system: CCRIS mutagenicity, Ames/micronucleus/aberration tests
Assay: CCRIS mutagenicity studies
Settings: Test System: AMES SALMONELLA TYPHIMURIUM; Strain/Indicator: TA100; Metabolic Activation: NONE; Method: STANDARD PLATE
From the text: The CCRIS database contains chemical records with carcinogenicity, mutagenicity, tumor promotion, and tumor inhibition test results. It was developed by the National Cancer Institute (NCI). Data are derived from studies cited in primary journals, current awareness tools, NCI reports, and other sources. Test results have been reviewed by experts in carcinogenesis and mutagenesis. CCRIS provides historical information from the years 1985 - 2011. It is no longer updated. […]
Calls of active or inactive are those of the source. How the calls were made is not given here.
Classes used: active, inactive

{"compound": "CC1(C)C2CC3OC3(C)C1C2 (stereo unspecified)", "system": "CCRIS mutagenicity, Ames/micronucleus/aberration tests", "categoryLabel": "inactive"}
{"compound": "O=c1ccc2cc3ccoc3cc2o1", "system": "CCRIS mutagenicity, Ames/micronucleus/aberration tests", "categoryLabel": "inactive"}
{"compound": "CCON(OC(C)=O)C(=O)c1ccccc1", "system": "CCRIS mutagenicity, Ames/micronucleus/aberration tests", "categoryLabel": "active"}
{"compound": "Oc1ccc2ccccc2c1N=Nc1ccc(N=Nc2ccccc2)cc1", "system": "CCRIS mutagenicity, Ames/micronucleus/aberration tests", "categoryLabel": "inactive"}
{"compound": "CC(=O)N(O)c1ccc(Oc2c(Cl)cc(Cl)cc2Cl)cc1", "system": "CCRIS mutagenicity, Ames/micronucleus/aberration tests", "categoryLabel": "inactive"}
{"compound": "CCN(C(=S)[S-])c1ccccc1.CCN(C(=S)[S-])c1ccccc1.[Zn+2]", "system": "CCRIS mutagenicity, Ames/micronucleus/aberration tests", "categoryLabel": "inactive"}
{"compound": "CC(C)(C)CBr", "system": "CCRIS mutagenicity, Ames/micronucleus/aberration tests", "categoryLabel": "inactive"}
{"compound": "Cc1nnc2n1-c1ccc(Cl)cc1C(c1ccccc1Cl)=NC2", "system": "CCRIS mutagenicity, Ames/micronucleus/aberration tests", "categoryLabel": "inactive"}
{"compound": "Clc1cccc(Cl)c1", "system": "CCRIS mutagenicity, Ames/micronucleus/aberration tests", "categoryLabel": "inactive"}
{"compound": "Cc1cc2c(C)c3ccccc3c(C)c2cc1C", "system": "CCRIS mutagenicity, Ames/micronucleus/aberration tests", "categoryLabel": "inactive"}
{"compound": "CN(C)C=O", "system": "CCRIS mutagenicity, Ames/micronucleus/aberration tests", "categoryLabel": "inactive"}

---

Tested on: CCRIS mutagenicity, Ames/micronucleus/aberration tests
Experiment: CCRIS mutagenicity studies
Settings: Test System: AMES SALMONELLA TYPHIMURIUM; Strain/Indicator: TA98; Metabolic Activation: RAT, LIVER, S-9, AROCLOR 1254; Method: STANDARD PLATE
The source made the active and inactive calls. The rule behind the calls is not given here.
Outcomes: active, inactive

{"compound": "c1ccc2c(c1)ccc1c3ccccc3ccc21", "categoryLabel": "active"}
{"compound": "O=C1Cc2cc3cc([N+](=O)[O-])ccc3cc2[C@H](O)[C@H]1O", "categoryLabel": "inactive"}
{"compound": "CC1=CC(=O)c2nc(C)c3c([nH]c4ccccc43)c2C1=O", "categoryLabel": "active"}
{"compound": "Cc1cc(N)c(C)cc1N", "categoryLabel": "active"}
{"compound": "CN(C)c1ccc(C(=C2C=CC(=[N+](C)C)C=C2)c2c(O)c(S(=O)(=O)[O-])cc3cc(S(=O)(=O)O)ccc23)cc1", "categoryLabel": "inactive"}
{"compound": "Cc1cc(=O)c2c(O)c3c(O)cc(O)c4c5c(O)cc(O)c6c(O)c7c(=O)cc(C)c8c1c2c(c34)c(c65)c78", "categoryLabel": "inactive"}
{"compound": "O=CN(O)c1ccc(Cl)cc1", "categoryLabel": "active"}
{"compound": "Nc1ccc(/C=C/C(=O)O)cc1", "categoryLabel": "inactive"}
{"compound": "c1ccc2c(c1)-c1cccc3cc4ccccc4c-2c13", "categoryLabel": "inactive"}
{"compound": "Cc1nnc2n1-c1ccc(Cl)cc1C(c1ccccc1Cl)=NC2", "categoryLabel": "inactive"}
{"compound": "C1=c2ccccc2=C2Cc3ccccc3C3=C4OC4=C1C32 (configuration not stated)", "categoryLabel": "active"}
{"compound": "O=S1(=O)OC(c2cc(Br)c(O)c(Br)c2)(c2cc(Br)c(O)c(Br)c2)c2ccccc21", "categoryLabel": "inactive"}
{"compound": "NC(=O)CCC(=O)Nc1ccc(Cl)cc1", "categoryLabel": "inactive"}
{"compound": "ClC1=C(Cl)[C@]2(Cl)[C@H]3[C@H]([C@@H]4C=C[C@H]3C4)[C@@]1(Cl)C2(Cl)Cl", "categoryLabel": "inactive"}
{"compound": "Cc1nnc(NS(=O)(=O)c2ccc(N)cc2)s1", "categoryLabel": "inactive"}
{"compound": "O=C1c2ccccc2C([N+](=O)[O-])c2ccccc21", "categoryLabel": "inactive"}
{"compound": "Clc1cc2ccccc2c2ccccc12", "categoryLabel": "active"}

---

System: CCRIS mutagenicity, Ames/micronucleus/aberration tests
Experiment: CCRIS mutagenicity studies
Conditions: Test System: E. COLI; Strain/Indicator: WP2 UVRA; Metabolic Activation: NONE; Method: STANDARD PLATE
Description: The CCRIS database contains chemical records with carcinogenicity, mutagenicity, tumor promotion, and tumor inhibition test results. It was developed by the National Cancer Institute (NCI). Data are derived from studies cited in primary journals, current awareness tools, NCI reports, and other sources. Test results have been reviewed by experts in carcinogenesis and mutagenesis. CCRIS provides historical information from the years 1985 - 2011. It is no longer updated. […]
The source made the active and inactive calls. No rule for the calls is given here.
Outcome codes: 1.0 (active), 0.0 (inactive)

{"molecule": "O=C(O)[C@@H]1CS[C@H](c2ccccc2O)N1C(=O)CCS", "categoryLabel": 0.0}
{"molecule": "Nc1ccc2cc3ccc(N)cc3nc2c1", "categoryLabel": 0.0}
{"molecule": "Nc1ncc(/C=C/c2ccc([N+](=O)[O-])o2)nn1", "categoryLabel": 1.0}
{"molecule": "CN(C)CCN(Cc1cccs1)c1ccccn1", "categoryLabel": 0.0}
{"molecule": "Cc1ccc(C2CO2)cc1C (stereo not given)", "categoryLabel": 1.0}

---

System: CCRIS mutagenicity, Ames/micronucleus/aberration tests
Experiment: CCRIS mutagenicity studies
Conditions: Test System: AMES SALMONELLA TYPHIMURIUM; Strain/Indicator: TA100; Metabolic Activation: RAT, LIVER, S-9, KANECHLOR 500; Method: PREINCUBATION
Calls of active or inactive are those of the source. How the calls were made is not given here.
Outcome codes: active, inactive

{"compoundString": "CC(=O)Nc1ccnc2ccccc12", "categoryLabel": "inactive"}
{"compoundString": "O=[N+]([O-])c1ccccc1Br", "categoryLabel": "active"}
{"compoundString": "CC(=O)Nc1ccc2ccccc2n1", "categoryLabel": "inactive"}
{"compoundString": "OC[C@@H](O)CCl", "categoryLabel": "inactive"}
{"compoundString": "O=C(O)c1ccc([N+](=O)[O-])cc1", "categoryLabel": "active"}
{"compoundString": "O=[N+]([O-])c1cc(CCl)cc([N+](=O)[O-])c1", "categoryLabel": "active"}
{"compoundString": "Cc1ccc(Cl)cc1[N+](=O)[O-]", "categoryLabel": "inactive"}

These measurements were taken from PubChem BioAssay AID1259407.
